Where do these numbers come from? They come from the RNAGym collection of RNA variant scans (doi:10.1093/molbev/msab373).

B1: Azoarcus group I ribozyme (parent)
chain: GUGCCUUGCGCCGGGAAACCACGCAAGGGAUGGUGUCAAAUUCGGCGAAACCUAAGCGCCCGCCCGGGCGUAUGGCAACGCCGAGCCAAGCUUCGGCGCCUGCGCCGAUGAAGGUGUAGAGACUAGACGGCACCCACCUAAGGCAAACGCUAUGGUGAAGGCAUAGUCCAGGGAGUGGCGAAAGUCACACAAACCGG

Variants of: B1
protocol details: reverse-splicing fitness (ratio to wild type); higher = more active; in vitro selection; Mg2+ level not given
assay metric: reverse-splicing fitness
Give bare numbers.

Record excerpt, results attached:
variant code	assay metric	observed measurement
A111U A120G A145C C150G U176C	reverse-splicing fitness	0.0143
C82G A111U A145G C169G U176A	reverse-splicing fitness	0.0187
A111C A120G A145C C150G U176A	reverse-splicing fitness	0.0112
C82A A111U A120U C169A U176C	reverse-splicing fitness	0.0039
A120C A145G U176A	reverse-splicing fitness	0.707

Answer for every listed entry: what is its reverse-splicing fitness? The entries follow.
1. C82A A111C A120G C150U
2. C82A A111C A145G C150U C169G U176G
3. C82U A111U A145G C150G U176G
4. C82A A111U A120U A145C C169U
5. C82A A111U A120C A145G C150G U176C

## Output
[0.0107, 0.00687, 0.00676, 0.00338, 0.0126]

## Input Give the reported value of reverse-splicing fitness for this record: C82U A120C C169A U176C
## Output 0.0121
